Value source: patent US11655242B2

study-target: human GLP-1R (Homo sapiens (Human), UniProt P43220)
Sequence (P43220 24-463): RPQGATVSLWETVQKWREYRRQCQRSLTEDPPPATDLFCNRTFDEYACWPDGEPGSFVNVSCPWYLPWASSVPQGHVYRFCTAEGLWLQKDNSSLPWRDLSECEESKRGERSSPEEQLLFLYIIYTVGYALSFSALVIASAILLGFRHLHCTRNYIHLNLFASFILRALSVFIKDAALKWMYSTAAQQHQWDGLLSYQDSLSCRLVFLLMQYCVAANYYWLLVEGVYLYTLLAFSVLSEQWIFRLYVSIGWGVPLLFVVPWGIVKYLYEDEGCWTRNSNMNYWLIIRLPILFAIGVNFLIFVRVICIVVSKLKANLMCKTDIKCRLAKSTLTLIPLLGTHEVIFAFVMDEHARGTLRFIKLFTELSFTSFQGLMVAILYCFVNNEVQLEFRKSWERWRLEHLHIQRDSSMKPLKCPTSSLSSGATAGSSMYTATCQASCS
protocol: Human GLP-1 Receptor HEK293 Cell cAMP Assay
assay-setup: HEK293, read-out: Emax (%) ± SEM (n), HEK293 cell line with 104 fmol/mg expression density of GLP-1R; percent of maximal response with human GLP-1(7-36)NH2
metric: Emax

Below: 3 molecules and their reported Emax.
Any idea what its Emax is? The molecule is Cc1cc(Cc2nc3ccc(C(=O)O)cc3n2C[C@@H]2CCO2)c(F)cc1-c1cccc(OCc2ccc(C#N)cc2F)n1
79.2%

What do we get for Cc1c(-c2cccc(OCc3ccc(C#N)cc3F)n2)ccc(Cc2nc3ccc(C(=O)O)cc3n2C[C@@H]2CCO2)c1F ?
76.7%

Also, N#Cc1ccc(COc2cccc(-c3cc(F)c(Cc4nc5ccc(C(=O)O)cc5n4C[C@@H]4CCO4)c(F)c3)n2)c(F)c1 please.
78.3%

Continuing:
Which Emax value belongs to Cc1cc(Cc2nc3ccc(C(=O)O)cc3n2C[C@@H]2CCO2)ccc1-c1cccc(OCc2ccc(C#N)cc2F)n1 ?
71.4%
